Provenance of the data: the supplement of paper PMC10567573

B1: ETS1 (parent)
chain: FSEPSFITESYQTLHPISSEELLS

# Variants of: B1
# Assay details: protein stability index of a GFP-peptide fusion (GPS, HEK-293T) (PSI 1-6); higher = more stable;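 further: lentivirally expressed fusions sorted by FACS into six bins by GFP to DsRed ratio, PSI derived from sequencing read proportions per bin multiplied by bin number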
# Run conditions: c terminus: a fixed tail appended
Can you tell me protein stability index for the items I'm about to list?

Given the entry T8F , report its measured protein stability index.
1.95

Item under review: Y11I . Reported protein stability index?
2.04

Suppose we examine the variant L22G ; what protein stability index value has been reported?
2.03
